System: RAW264.7
Assay: Antiinflammatory activity in mouse RAW264.7 cells assessed as inhibition of LPS-induced TNF-alpha release incubated for 4 hrs prior to LPS challenge measured after 24 hrs by ELISA
Type: functional, cell-based
measure: IC50
Remember to quote the unit after the number.

Query :: Tell me its IC50 on RAW264.7: `C[C@@H]1CC[C@]2(C(=O)O)CC[C@]3(C)C(=CC[C@@H]4[C@@]5(C)C[C@@H](O)[C@@H](O)[C@@](C)(CO)[C@@H]5CC[C@]43C)[C@@H]2[C@]1(C)O`
Result :: 14.3 µM

----------
System: RAW264.7
Assay: Antiinflammatory activity in mouse RAW264.7 cells assessed as inhibition of LPS-induced IL-10 release incubated for 4 hrs prior to LPS challenge measured after 24 hrs by ELISA
Format: functional, cell-based
measure: IC50 (µM)
Write down the numeric answer in µM and omit the unit.

Query :: For the compound `C[C@@H]1CC[C@]2(C(=O)O)CC[C@]3(C)C(=CC[C@@H]4[C@@]5(C)C[C@@H](O)[C@@H](O)[C@@](C)(CO)[C@@H]5CC[C@]43C)[C@@H]2[C@]1(C)O` , give its reported IC50.
Result :: 10.4
